All values here come from patent US6579881B2.

- TARGET ENTITY: α1 adrenalin receptor
- TEST PROTOCOL: Binding test on [3H] prazosin (α1 adrenalin receptor)
- Design: species or system rat
Counter-ions that a name gives are not always drawn.
ASSAY READOUT: Ki

MOLECULE: COc1ccc2c(c1)C(N1CCN(CCc3ccc(F)cc3)CC1)CC2 (centres unmarked) [Example 250, Hydrochloride]
Ki: 263 nM

Continue with the next molecule.
Dear colleague, I am looking for the recorded Ki of the following molecule: Fc1ccc(CCN2CCN(C3CCCc4cnccc43)CC2)cc1 (centres unmarked) [Example 283, Hydrochloride]
197 nM

* * *

Below, each of the compounds is paired with its reported pKi value.
- TARGET ENTITY: serotonin 1A receptor (Rattus norvegicus, UniProt P19327)
- Construct: To the receptor fraction of the hippocampus were added a test compound and 0.5 nM of [^3H]; 8-hydroxy-dipropylaminotetralin; from tissue; host or cells: SD rat hippocampus, membrane (receptor) fraction
- Sequence (P19327 whole entry): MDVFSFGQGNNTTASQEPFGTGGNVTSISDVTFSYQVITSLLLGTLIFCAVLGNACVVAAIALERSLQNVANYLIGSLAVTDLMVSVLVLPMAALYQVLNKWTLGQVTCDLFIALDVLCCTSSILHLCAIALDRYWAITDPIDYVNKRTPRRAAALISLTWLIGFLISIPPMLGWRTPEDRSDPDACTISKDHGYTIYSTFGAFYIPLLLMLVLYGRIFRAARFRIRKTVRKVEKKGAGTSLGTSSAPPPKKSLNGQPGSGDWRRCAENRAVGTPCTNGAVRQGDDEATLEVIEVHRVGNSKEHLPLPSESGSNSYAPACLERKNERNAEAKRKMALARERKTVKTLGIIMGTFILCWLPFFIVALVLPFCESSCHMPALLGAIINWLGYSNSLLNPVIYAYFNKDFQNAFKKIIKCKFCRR
- TEST PROTOCOL: Binding test on [3H] 8-hydroxy-dipropylaminotetralin (serotonin 1A receptor)
- CONDITION SET: [3H] 8-OH-DPAT 0.5 nM, receptor fraction of rat hippocampus; read-out: 5HT1a
Counter-ions that a name gives are not always drawn.
Remember the convention: pKi equals -log10 of concentration in molar.

COMPOUND: CNc1ccc2c(c1)N(C1CCN(CCc3ccc(F)cc3)CC1)CC2 [Example 111]
pKi: 8.26
--
COMPOUND: COc1ccc(Cc2ccc3c(c2)N(C2CCN(CCc4ccc(F)cc4)CC2)CC3)cn1 [Example 189]
pKi: 8.11
--
COMPOUND: COc1ccc(CCN2CCC(N3CCc4ccccc43)CC2)s1 [Example 64]
pKi: 7.83
--
COMPOUND: COc1cccc(Cc2ccc3c(c2)N(C2CCN(CCc4ccc(F)cc4)CC2)CC3)n1 [Example 187]
pKi: 7.19
--
COMPOUND: CNC(=O)Cc1ccc2ccn(C3CCN(CCc4ccccc4F)CC3)c2c1 [Example 342]
pKi: 9.19
--
COMPOUND: CC(C)(O)c1ccc2c(c1)N(C1CCN(CCc3ccc(F)cc3)CC1)CC2 [Example 139]
pKi: 8.64
--
COMPOUND: COc1ccc2c(c1)N(C1CCN(CCc3ccc(F)cc3)C1)CC2 (stereo not drawn) [Example 292]
pKi: 7.04
--
COMPOUND: NC(=S)Cc1ccc2c(c1)N(C1CCN(CCc3ccc(F)cc3)CC1)CC2 [Example 129]
pKi: 9.02

Dear colleague, I am looking for the recorded pKi of the following compound: OCc1ccc2c(c1)N(C1CCN(CCc3ccc(F)cc3)CC1)CC2 [Example 136]
8.47

Dear colleague, I am looking for the recorded pKi of the following compound: O=C1CCCC(=O)N1Cc1ccc2c(c1)N(C1CCN(CCc3ccc(F)cc3)CC1)CC2 [Example 205]
8.56

Dear colleague, I am looking for the recorded pKi of the following compound: c1ccc2c(c1)CCN2C1CCN(CCc2ccc3c(c2)OCO3)CC1 [Example 46]
8.96

Dear colleague, I am looking for the recorded pKi of the following compound: c1ccc2c(c1)CCN2C1CCN(CC2COc3ccccc3O2)CC1 (stereo not drawn) [Example 77]
7.35

Dear colleague, I am looking for the recorded pKi of the following compound: O=C(CCN1CCCCC1)NCc1ccc2ccn(C3CCN(CCc4ccc(F)cc4)CC3)c2c1 [Example 379]
8.02

Dear colleague, I am looking for the recorded pKi of the following compound: CCN1CCN(C2CCc3ccc(OC)cc32)CC1 (stereo not drawn) [Example 251, Hydrochloride]
7.23

Dear colleague, I am looking for the recorded pKi of the following compound: OC(c1ccc2c(c1)N(C1CCN(CCc3ccc(F)cc3)CC1)CC2)c1cscn1 (stereo not drawn) [Example 195]
8.24

Dear colleague, I am looking for the recorded pKi of the following compound: COc1ccc2c(c1)N(C1CCCN(CCc3ccc(F)cc3)CC1)CC2 (stereo not drawn) [Example 291]
8.16

Dear colleague, I am looking for the recorded pKi of the following compound: O=C1CCCCN1Cc1ccc2c(c1)N(C1CCN(CCc3ccc(F)cc3)CC1)CC2 [Example 203]
9.26

Dear colleague, I am looking for the recorded pKi of the following compound: Fc1ccc(N2CCC(N3CCc4ccccc43)CC2)cc1 [Example 1]
6.20

* * *

- TARGET ENTITY: serotonin 2 receptor (Rattus norvegicus, UniProt P14842)
- Sequence (P14842 whole entry): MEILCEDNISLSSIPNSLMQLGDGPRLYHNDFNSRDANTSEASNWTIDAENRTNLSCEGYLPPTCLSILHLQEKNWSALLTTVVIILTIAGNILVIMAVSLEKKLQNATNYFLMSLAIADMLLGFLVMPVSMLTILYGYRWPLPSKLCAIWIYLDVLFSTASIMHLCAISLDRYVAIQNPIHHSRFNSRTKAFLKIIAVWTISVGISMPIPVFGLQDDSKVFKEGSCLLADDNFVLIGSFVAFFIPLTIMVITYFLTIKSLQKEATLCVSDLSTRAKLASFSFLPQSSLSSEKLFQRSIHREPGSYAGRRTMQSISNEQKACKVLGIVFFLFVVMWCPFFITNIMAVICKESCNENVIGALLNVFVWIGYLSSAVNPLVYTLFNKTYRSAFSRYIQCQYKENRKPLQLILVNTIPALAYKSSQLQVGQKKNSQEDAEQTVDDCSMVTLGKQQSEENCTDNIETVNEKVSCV
- TEST PROTOCOL: Binding test on [3H] ketanserin (serotonin 2 receptor)
- CONDITION SET: [3H] ketanserin 0.3 nM, receptor fraction of rat cerebral cortex; read-out: 5HT2
Below, each of the compounds is paired with its reported pKi value.
Remember the convention: pKi equals -log10 of concentration in molar.

COMPOUND: CC(=O)N(C)Cc1ccc2ccn(C3CCN(CCc4ccc(F)cc4)CC3)c2c1 [Example 359]
TARGET ENTITY: serotonin 2 receptor (Rattus norvegicus, UniProt P14842)
pKi: 8.13

Dear colleague, I am looking for the recorded pKi of the following compound: OC(c1ccncc1)c1ccc2c(c1)N(C1CCN(CCc3ccc(F)cc3)CC1)CC2 (stereo not shown) [Example 178]
8.60

* * *

- TARGET ENTITY: serotonin 2 receptor (Rattus norvegicus)
- TEST PROTOCOL: Binding test on [3H] ketanserin (serotonin 2 receptor)
- CONDITION SET: [3H] ketanserin 0.3 nM, receptor fraction of rat cerebral cortex; read-out: 5HT2
ASSAY READOUT: Ki (nM)
# value in nM; strip the unit string

Completed entries (count: 5):
MOLECULE: O=C(Cc1ccc2ccn(C3CCN(CCc4ccc(F)cc4)CC3)c2c1)NCC1OCCO1 [Example 347]
TARGET ENTITY: serotonin 2 receptor (Rattus norvegicus)
ASSAY READOUT: Ki
SCALE UNIT: nM
TEST RESULT: 0.65
//
MOLECULE: Brc1ccc(CCN2CCC(N3CCc4ccccc43)CC2)cc1 [Example 4]
TARGET ENTITY: serotonin 2 receptor (Rattus norvegicus)
ASSAY READOUT: Ki
SCALE UNIT: nM
TEST RESULT: 24.9
//
MOLECULE: OC[C@H]1CN(CCc2ccc(F)cc2)CC[C@@H]1N1CCc2ccccc21 (relative stereo) [Example 82]
TARGET ENTITY: serotonin 2 receptor (Rattus norvegicus)
ASSAY READOUT: Ki
SCALE UNIT: nM
TEST RESULT: 5.3
//
MOLECULE: CN(C)c1ccc(C(O)c2ccc3c(c2)N(C2CCN(CCc4ccc(F)cc4)CC2)CC3)cn1 (centres unmarked) [Example 191]
TARGET ENTITY: serotonin 2 receptor (Rattus norvegicus)
ASSAY READOUT: Ki
SCALE UNIT: nM
TEST RESULT: 0.32
//
MOLECULE: CC(=O)NCc1ccc2c(c1)N(C1CCN(CCCOc3ccc(F)cc3)CC1)CC2 [Example 232]
TARGET ENTITY: serotonin 2 receptor (Rattus norvegicus)
ASSAY READOUT: Ki
SCALE UNIT: nM
TEST RESULT: 48.2

# returns recorded Ki (system: serotonin 2 receptor (Rattus norvegicus)) for CC(=O)NCc1ccc(CCN2CCC(N3CCc4ccccc43)CC2)cc1 [Example 36]
14.9

# returns recorded Ki (system: serotonin 2 receptor (Rattus norvegicus)) for c1ccc2c(c1)CCN2C1CCN(CCc2ccc3ncsc3c2)CC1 [Example 63]
1.2

* * *

- TARGET ENTITY: UniProt:P14842
- TEST PROTOCOL: Binding test on [3H] ketanserin (serotonin 2 receptor)
- CONDITION SET: [3H] ketanserin 0.3 nM, receptor fraction of rat cerebral cortex; read-out: 5HT2
ASSAY READOUT: pKi
Remember the convention: pKi equals -log10 of concentration in molar.

COMPOUND: OCc1cncc(CCN2CCC(N3CCc4ccccc43)CC2)c1
pKi: 8.77

Dear colleague, I am looking for the recorded pKi of the following compound: Clc1ccc(CCN2CCC(N3CCc4ccccc43)CC2)cc1
7.76

Dear colleague, I am looking for the recorded pKi of the following compound: CCN1CCC(Cc2ccc3c(c2)N(C2CCN(CCc4ccc(F)cc4)CC2)CC3)CC1
7.86

Dear colleague, I am looking for the recorded pKi of the following compound: Fc1ccc(CCN2CCC(N3CCc4ccc(F)nc43)CC2)cc1
8.28

Dear colleague, I am looking for the recorded pKi of the following compound: O=C(CF)NCc1ccc2ccn(C3CCN(CCc4ccc(F)cc4)CC3)c2c1
8.69

* * *

ASSAY READOUT: melting point

SMILES DATA: O=C(Cc1ccc2ccn(C3CCN(CCc4ccc(F)cc4)CC3)c2c1)NC(CO)CO.O=C(O)C(=O)O
TEST RESULT: 213.1 to 214.5 °C (dec.)
//
SMILES DATA: NCc1ccc2ccn(C3CCN(CCc4ccccc4F)CC3)c2c1
TEST RESULT: 86 to 87 °C
//
SMILES DATA: CS(=O)(=O)NCc1ccc2ccn(C3CCN(CCc4ccc(F)cc4)CC3)c2c1
TEST RESULT: 121 to 122 °C

Dear colleague, I am looking for the recorded melting point of the following compound: O=C(CO)NCc1ccc2ccn(C3CCN(CCc4ccccc4F)CC3)c2c1
151 to 152 °C
